Where do these numbers come from? They come from patent US9434743B2.

Target: human MetAP2 enzyme (Homo sapiens, UniProt P50579)
Sequence (P50579 whole entry): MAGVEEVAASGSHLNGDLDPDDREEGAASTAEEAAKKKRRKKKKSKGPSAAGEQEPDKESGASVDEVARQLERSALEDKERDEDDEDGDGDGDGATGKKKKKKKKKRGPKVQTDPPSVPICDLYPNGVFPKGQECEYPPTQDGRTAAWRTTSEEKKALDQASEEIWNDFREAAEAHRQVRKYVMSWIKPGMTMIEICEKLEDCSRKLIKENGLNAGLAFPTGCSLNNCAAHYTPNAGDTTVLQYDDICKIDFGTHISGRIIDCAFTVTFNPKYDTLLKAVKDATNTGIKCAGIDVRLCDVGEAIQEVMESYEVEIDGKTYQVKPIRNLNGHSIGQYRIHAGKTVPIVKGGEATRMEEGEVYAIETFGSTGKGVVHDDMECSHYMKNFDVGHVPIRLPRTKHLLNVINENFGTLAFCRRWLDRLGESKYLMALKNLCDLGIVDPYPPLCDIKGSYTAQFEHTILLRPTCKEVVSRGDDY
Test: MetAP2 enzyme assay, enzyme complexed with manganese ions
Conditions: MetAP2 Mn pIC50, MetAP2 enzyme complexed with manganese ions; Met-AMC substrate at Km
measured_quantity: log10(IC50) (log10 of the value in nM)
Log scale reminder: IC50 in nM, then log10 taken.

Some compounds with known log10(IC50) results, for comparison:
compound: Nc1cc(Cl)cnc1-c1cc(C(F)(F)F)cc2[nH]ncc12 [Example 216]
reading: 1.00

compound: CNC(=O)c1ccc(F)cc1-c1cc(C(F)(F)F)cc2[nH]ncc12 [Example 102]
reading: 1.90

compound: CNS(=O)(=O)c1cccc(-c2cc(C(F)(F)F)cc3[nH]ncc23)c1 [Example 104]
reading: 1.60

compound: COc1nc(C(=O)NCCO)ccc1-c1cc(C(F)(F)F)cc2[nH]ncc12 [Example 394]
reading: 0.70

compound: COc1cc(C(=O)N2CCOCC2)ccc1-c1cc(C(F)(F)F)cc2[nH]ncc12 [Example 318]
reading: 1.10

Please look at the items below and tell me log10(IC50) for each one, in order.
1. FC(F)(F)c1cc(-c2cccc(-c3cc[nH]n3)c2)c2cn[nH]c2c1 [Example 61]
2. COc1cc(C(N)=O)ccc1-c1cc(C(F)(F)F)cc2[nH]ncc12 [Example 306]
3. FC(F)(F)c1cc(-c2cnc3ccccn23)c2cn[nH]c2c1 [Example 149]
4. O=C(NCC(F)F)c1c[nH]c(=O)c(-c2cc(C(F)(F)F)cc3[nH]ncc23)c1 [Example 338]
5. FC(F)(F)c1cc(-c2ccncc2)c2cn[nH]c2c1 [Example 14]
6. CC(=O)Nc1cccnc1-c1cc(C(F)(F)F)cc2[nH]ncc12 [Example 218]
7. Cn1cc(-c2cc(C(F)(F)F)cc3[nH]ncc23)c(=O)[nH]c1=O [Example 278]

1.60
0.80
1.80
1.00
1.00
2.40
1.00

Please look at the items below and tell me log10(IC50) for each one, in order.
1. Cc1[nH]c(=O)[nH]c(=O)c1-c1cc(C(F)(F)F)cc2[nH]ncc12 [Example 204]
2. Cc1ncsc1-c1cc(C(F)(F)F)cc2[nH]ncc12 [Example 177]

1.20
0.60

Please look at the items below and tell me log10(IC50) for each one, in order.
1. FC(F)(F)c1cc(-c2ccc3ccncc3c2)c2cn[nH]c2c1 [Example 26]
2. NC(=O)c1ccc(-c2cc(C(F)(F)F)cc3[nH]ncc23)cn1 [Example 251]
3. NC(=O)c1cc(-c2cc(C(F)(F)F)cc3[nH]ncc23)ccc1F [Example 110]
4. CC(C)(C)C(=O)Nc1ncccc1-c1cc(C(F)(F)F)cc2[nH]ncc12 [Example 73]
5. Cc1n[nH]cc1-c1cc(C(F)(F)F)cc2[nH]ncc12 [Example 22]

1.10
0.70
0.60
1.90
0.70
